Provenance of the data: patent US20140357577A1

# Tested on: HIV mutant virus strain HXB2D with mutation Q40H in the gp41 gene
# Test description: Standard AVE, HXB2D site directed mutant Q40H
# Type: cell-based, HIV-1
# Assay context: fold change vs wild type strain HXB2D
Starred links: 1 amine or outer side, 2 acyl side, 3 side chain; linkers in the order of their positions; H or OH if unused. *: point of attachment. Suc = O=C(CCC(=O)[*:2])[*:1]; Pentanoyl = CCCCC(=O)*; Tba = not defined here; Butyryl = CCCC(=O)*
Each record gets a class by HIV-HXB2D Q40H mutant (fold change in EC50): low (below 100), moderate (100 to below 200), high (200 or more)

Worked set:
[[record]]
substance = "Ac-ACY-Cha-ACIEALIRAAQEQQEKNEAALR-NH2 [Peptide 59]"
qualitative_label = "low"

[[record]]
substance = "Suc-CYLACIEELIRKAQEQQEKNEAAL-Tba-NH2 [23] (Suc-CYLACIEELIRKAQEQQEKNEAAL-{Tba-NH2}; cysteine pairing not given here; reading uncertain; also: printed as Suc-CYLACIEELIRKAQEQQEKNEAAL-Tba-NH2) [Peptide 23]"
qualitative_label = "high"

[[record]]
substance = "Suc-CYLACIEELIRKAGEQQEKNEAAL-Tba-NH2 (Suc-CYLACIEELIRKAGEQQEKNEAAL-{Tba-NH2}; cysteine pairing not given here; reading uncertain; also: printed as Suc-CYLACIEELIRKAGEQQEKNEAAL-Tba-NH2) [Peptide 25]"
qualitative_label = "high"

[[record]]
substance = "SUC-ACYLACIDELIKKAQEQQEKNEAALR-NH2 (Suc-ACYLACIDELIKKAQEQQEKNEAALR-NH2; cysteine pairing not given here) [Peptide 30]"
qualitative_label = "moderate"

[[record]]
substance = "ENYLALIEALIRAAQEQQEKNEAALR [Peptide 8]"
qualitative_label = "high"

[[record]]
substance = "Ac-ECYLACIEELIRKAQEQQEKNEAALR-NH2 [Peptide 37]"
qualitative_label = "moderate"

[[record]]
substance = "SUC-ECYLACIEALIRAAQEQQEKNEAALR-NH2 (Suc-ECYLACIEALIRAAQEQQEKNEAALR-NH2; cysteine pairing not given here) [Peptide 33]"
qualitative_label = "high"

[[record]]
substance = "Suc-ACY-Nva-ACIEALIRAAQEQQEKNEAALR-NH2 [Peptide 44]"
qualitative_label = "moderate"

[[record]]
substance = "AC-ACYLACIEALIRRAQEQQEKNEAALR-NH2 [Peptide 51]"
qualitative_label = "low"

[[record]]
substance = "Butanoyl-ECYLACIEELIRKAQEQQEKNEAALR-NH2 (Butyryl-ECYLACIEELIRKAQEQQEKNEAALR-NH2; cysteine pairing not given here) [Peptide 40]"
qualitative_label = "low"


Consider now this further substance.
Input: Class label required: Pentanoyl-ECYLACIEALIRAAQEQQEKNEAALR-NH2 (cysteine pairing not given here) [Peptide 38]
Output: low
